Measurement target: Aurora A/TPX2^1–43 (Homo sapiens, UniProt O14965)
Sequence (O14965 1-403): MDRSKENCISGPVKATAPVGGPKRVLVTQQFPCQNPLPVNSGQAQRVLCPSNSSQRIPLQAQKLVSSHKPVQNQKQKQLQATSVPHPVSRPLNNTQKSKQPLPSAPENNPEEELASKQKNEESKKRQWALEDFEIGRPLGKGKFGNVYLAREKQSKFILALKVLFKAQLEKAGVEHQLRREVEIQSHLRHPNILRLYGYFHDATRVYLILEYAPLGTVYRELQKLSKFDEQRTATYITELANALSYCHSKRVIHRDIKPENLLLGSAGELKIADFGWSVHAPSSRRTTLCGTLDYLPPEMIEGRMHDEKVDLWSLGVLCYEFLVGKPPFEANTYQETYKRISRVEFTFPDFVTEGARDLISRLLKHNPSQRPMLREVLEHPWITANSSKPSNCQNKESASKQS
Sequence (Q9ULW0 1-43 partner limits assumed): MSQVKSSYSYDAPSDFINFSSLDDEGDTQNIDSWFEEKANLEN
Protocol: Aurora A/TPX2^1–43 kinase assay (ADP-Glo)
Assay context: Aurora A TPX2^1-43 Ki (example dataset, Figure 2D), calculated from the example IC50
Value kind: Ki (nM)
Answers are plain numbers, in nM.

Query: Please give the measured Ki for this compound: "O=C(c1cccc(Cl)c1F)N1CCN(Cc2cccc(Nc3nccs3)n2)CC1"
Response: 0.36

====

Target chain: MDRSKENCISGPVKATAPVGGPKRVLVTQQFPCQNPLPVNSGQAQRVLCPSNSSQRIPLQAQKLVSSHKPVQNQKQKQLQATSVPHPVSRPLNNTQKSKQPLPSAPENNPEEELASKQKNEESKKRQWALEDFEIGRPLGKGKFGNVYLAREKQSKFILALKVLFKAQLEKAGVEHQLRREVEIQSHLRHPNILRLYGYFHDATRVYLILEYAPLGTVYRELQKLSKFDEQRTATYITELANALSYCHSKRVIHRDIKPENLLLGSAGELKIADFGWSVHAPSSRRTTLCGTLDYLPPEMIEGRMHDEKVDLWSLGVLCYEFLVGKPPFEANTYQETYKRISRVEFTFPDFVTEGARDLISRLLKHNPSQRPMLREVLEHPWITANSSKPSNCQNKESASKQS
Value kind: pIC50
Numbers only, as −log10 of the molar value.

Query: Which pIC50 reading was recorded for the compound O=C(c1cccc(Cl)c1F)N1CCN(Cc2cccc(Nc3nccs3)n2)CC1 [MK-8745] ?
Response: 9.64

====

So I've got a bunch of compounds here, and I need their IC50 values.
Test system: HeLa cells
Protocol: G2 duration live imaging assay (GFP-PCNA; H2B-RFP), HeLa
Assay type: cell-based, human
Assay context: read-out: G2/M (G2 duration) IC50
# number then unit; no other words

INSERT INTO assay_data (compound, reading) VALUES
  ('O=C(O)[C@]1(Cc2cccc(Nc3nccs3)n2)CC[C@@H](Oc2cccc(Cl)c2F)CC1 [MK-5108]', '816 nM');

Attention now turns to another entry.
Query: Notebook: pull reported IC50 for HeLa cells, entry O=C(c1cccc(Cl)c1F)N1CCN(Cc2cccc(Nc3nccs3)n2)CC1 [MK-8745]
Response: 596 nM

====

System: pH3(Ser 28) in HeLa cells
Protocol: Substrate phosphorylation immunofluorescence assay, pH3(Ser 28), HeLa
Assay type: cell-based, human
Assay context: Homo sapiens, 8 h, 8 h inhibitor treatment, read-out: pHistone H3 (Ser28) IC50
Field: label. Allowed values: MET (IC50 < 0.4 µM) or NOT MET (IC50 >= 0.4 µM).

Look over these answered cases.
INSERT INTO results (smiles_text, category) VALUES
  ('O=C(O)c1ccc(Nc2ncc3c(n2)-c2ccc(Cl)cc2C(c2c(F)cccc2F)=NC3)cc1', 'NOT MET'),
  ('COc1cc(Nc2ncc3c(n2)-c2ccc(Cl)cc2C(c2c(F)cccc2OC)=NC3)ccc1C(=O)O', 'MET'),
  ('CCS(=O)(=O)Nc1ccc2c(c1)/C(=C(/Nc1ccc(CN3CCCCC3)cc1)c1ccccc1)C(=O)N2', 'MET');

From here, focus on the item given below.
Query: Input "Cc1cc(Nc2cc(N3CCN(C)CC3)nc(Sc3ccc(NC(=O)C4CC4)cc3)n2)[nH]n1" ; condition: IC50 strictly below 0.4 µM. Does it hold?
Response: MET

The reported numbers originate from paper PMC4685510.
